Data provenance: patent US20110165066A1

target: T1, human IL-13 wild type (human, UniProt P35225 35-146); assay: SPR (Biacore)
T1 construct: also called h IL-13; h IL-13 wt
T1 sequence (P35225 other isoform, or with tags, fused parts or gaps limits assumed): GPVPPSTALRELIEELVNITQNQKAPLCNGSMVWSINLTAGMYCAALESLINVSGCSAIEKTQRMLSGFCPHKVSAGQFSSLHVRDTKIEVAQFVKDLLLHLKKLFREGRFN
PARAMETER MEASURED: Kd (nM)
Answer with a number only, understood to be in nM.

BINDER	UNIT INFO	Kd
13C5.5L2EL3F (antibody, V domains shown, constant regions not restated for this variant) VH: EVTLRESGPGLVKPTQTLTLTCTLYGFSLSTSDMGVDWIRQPPGKGLEWLAHIWWDDVKRYNPALKSRLTISKDTSKNQVVLKLTSVDPVDTATYYCARTVSSGYIYYAMDYWGQGTLVTVSS VL: DIQMTQSPSSLSASVGDRVTISCRASQDIRNYLNWYQQKPGKAPKLLIFYTSMKPRGVPSRFSGSGSGTDYTLTISSLQPEDIATYYCQQGLTPPLTFGGGTKVEIK	nM	0.25

Which Kd value is on record for 5G1.1 (antibody, human IgG1, V domains shown, Humanized) VH: EVQLVQSGAEVKKPGASVKVSCKASGYTFTTYGVSWVRQAPGQGLEWIGEIYPGNYNTYYNEKFRGKATMTTDTSTSTAYMELRSLRSDDTAVYYCSRWRTSYFSDYGYFDYWGQGTTVTVSS VL: DVVMTQSPLSLPVTLGQPASISCRSSQSLVHSHGNTYLHWYQQRPGQSPRLLIYTVSNRFSGVPDRFSGSGSGTDFTLKISRVEAEDVGVYYCSQSTHVPYTFGGGTKVEIKR ? 0.0272

What value of measured Kd is listed for 5G1.5 (antibody, human IgG1, V domains shown, Humanized; The heavy chain row is printed 'VN 5G1.5') VH: QVQLVQSGAEVKKPGASVKVSCKASGYTFTTYGVSWVRQAPGQGLEWIGEIYPGNYNTYYNEKFRGKATLTADKSTSTAYMELSSLRSEDTAVYYCSRWRTSYFSDYGYFDYWGQGTLVTVSS VL: DIVMTQSPLSLPVTPGQPASISCRSSQSLVHSHGNTYLHWYLQKPGQSPKLLIYTVSNRFSGVPDRFSGSGSGTDFTLKISRVEAEDVGVYYCSQSTHVPYTFGGGTKVEIK ? 0.022
